Biological target: T1, Rb^P H673P (human, UniProt P06400 380-788, H673P)
T1 construct: also called variant 54
T1 sequence (looked up): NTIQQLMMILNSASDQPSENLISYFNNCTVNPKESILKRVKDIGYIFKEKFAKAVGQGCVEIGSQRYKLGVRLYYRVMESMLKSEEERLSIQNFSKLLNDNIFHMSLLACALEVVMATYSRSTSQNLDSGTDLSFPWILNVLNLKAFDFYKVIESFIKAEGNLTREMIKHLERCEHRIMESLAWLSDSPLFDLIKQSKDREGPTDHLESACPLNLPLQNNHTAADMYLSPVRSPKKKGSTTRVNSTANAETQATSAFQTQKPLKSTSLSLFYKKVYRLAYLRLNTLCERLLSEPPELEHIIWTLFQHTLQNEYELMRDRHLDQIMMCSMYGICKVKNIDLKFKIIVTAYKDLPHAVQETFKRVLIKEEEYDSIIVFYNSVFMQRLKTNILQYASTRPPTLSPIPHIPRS
Experiment: fluorescence polarisation; 37 °C, after the 25 °C reading ramped over 7 min to 37 °C and 2 min incubation; unlabeled Rb^P against 1.5 nM TMR-E2F1^TD or 7.5 nM TMR-E7^LxCxE; 25 mM Tris pH 8.0, 200 mM NaCl, 1 mM DTT, 0.1% Tween-20; apparent Kd
Conditions: both partners purified
No end group written: not given here. TMR = tetramethyl rhodamine dye

{"columns": ["Binder", "Kd / nM"],
 "data": [
  ["{TMR}-GEGIRDLFDCDFGDLTPLD (also called E2F^TD; source: synthetic peptide, bought: GenScript) [TMR-E2F1^TD, peptide of the E2F1 transactivation domain]", 98],
  ["DLYCYEQLN (also: TMR label, position not given here, source: synthetic peptide, bought: GenScript) [TMR-E7^LxCxE, LxCxE peptide of the E7 oncoprotein from HPV]", 83]
]}
